experimental_protocol: Chemical stability in pH 7.4 potassium phosphate buffer assessed as half life for compound hydrolysis at 37 degC by UPLC and mass spectrometry
Assay type: physicochemical
Quick reference for half-life among some compounds
assay_endpoint: half-life

| compound | assay_endpoint | endpoint_result |
| --- | --- | --- |
| CC(C)(O/N=C(\C(=O)N[C@@H]1C(=O)N(S(=O)(=O)O)[C@@H]1Cn1ncnc1CN)c1csc(N)n1)C(=O)O (stereo in doubt) | half-life | > 37 h |
| CC(C)(O/N=C(\C(=O)N[C@@H]1C(=O)N(S(=O)(=O)O)[C@@H]1Cn1cc(C(=O)O)nn1)c1csc(N)n1)C(=O)O (stereo in doubt) | half-life | > 37 h |
| Cc1ncnn1C[C@@H]1[C@H](NC(=O)/C(=N\OC(C)(C)C(=O)O)c2csc(N)n2)C(=O)N1S(=O)(=O)O (stereo in doubt) | half-life | > 37 h |

---

Reported values of MIC for individual entries
System: Escherichia coli
experimental_protocol: microbe, parasite or virus in culture
Description: Antimicrobial activity against Escherichia coli expressing beta-lactamase PER-4 by CLSI broth microdilution method

| molecule | target_under_test | MIC |
| --- | --- | --- |
| NC[C@@H]1CN(C[C@@H]2[C@H](NC(=O)/C(=N\OC3(C(=O)O)CC3)c3csc(N)n3)C(=O)N2S(=O)(=O)O)C(=O)O1 (stereo in doubt) | Escherichia coli | > 32 µg/mL |
| CC(C)(O/N=C(\C(=O)N[C@@H]1C(=O)N2C(C(=O)[O-])=C(C[n+]3ccccc3)CS[C@H]12)c1csc(N)n1)C(=O)O [CEFTAZIDIME] | Escherichia coli | > 64 µg/mL |
| C[C@@H](O)[C@H]1C(=O)N2C(C(=O)O)=C(S[C@@H]3CN[C@H](C(=O)N(C)C)C3)[C@H](C)[C@H]12 [MEROPENEM] | Escherichia coli | ≤ 0.06 µg/mL |
| N=C(NC1CCNCC1)c1ccc(OC[C@H](O/N=C(\C(=O)N[C@@H]2C(=O)N(S(=O)(=O)O)[C@@H]2Cn2cncn2)c2csc(N)n2)C(=O)O)cc1 (stereo in doubt) | Escherichia coli | > 64 µg/mL |

---

Tested on: Pseudomonas aeruginosa
experimental_protocol: Antimicrobial activity against Pseudomonas aeruginosa expressing delta-mexB/mexXY/delta-ampDh2/ delta-ampD by CLSI broth microdilution method
Assay type: functional
Listed here are compounds together with their documented MIC.
assay_endpoint: MIC

| compound | endpoint_result |
| --- | --- |
| CC(C)(O/N=C(\C(=O)N[C@@H]1C(=O)N(S(=O)(=O)O)[C@@H]1Cn1cncn1)c1csc(N)n1)C(=O)O (stereo in doubt) | > 64 µg/mL |
| CC(C)(O/N=C(\C(=O)N[C@@H]1C(=O)N(S(=O)(=O)O)[C@@H]1Cn1cncn1)c1nsc(N)n1)C(=O)O | > 64 µg/mL |
| Nc1nc(/C(=N/OC2(C(=O)O)CC2)C(=O)N[C@@H]2C(=O)N(S(=O)(=O)O)[C@H]2CN2CCOC2=O)cs1 (stereo in doubt) | > 64 µg/mL |
| NC[C@@H]1CN(C[C@@H]2[C@H](NC(=O)/C(=N\OC3(C(=O)O)CC3)c3csc(N)n3)C(=O)N2S(=O)(=O)O)C(=O)O1 (stereo in doubt) | > 32 µg/mL |

---

Each entry below carries its reported log10 of MIC.
System: Escherichia coli
experimental_protocol: microbe, parasite or virus in culture
Description: Antimicrobial activity against wild type Escherichia coli by CLSI broth microdilution method
assay_endpoint: log10 of MIC (log10 of the value in µg/mL)

| compound | endpoint_result |
| --- | --- |
| CC(C)(O/N=C(\C(=O)N[C@@H]1C(=O)N(S(=O)(=O)O)[C@@H]1Cn1nccn1)c1csc(N)n1)C(=O)O (stereo in doubt) | -0.30 |
| CC(C)(O/N=C(\C(=O)N[C@@H]1C(=O)N(S(=O)(=O)O)[C@@H]1Cn1cc(CN)nn1)c1csc(N)n1)C(=O)O (stereo in doubt) | 0.00 |
| N=C(NC1CCNCC1)c1ccc(OC[C@H](O/N=C(\C(=O)N[C@@H]2C(=O)N(S(=O)(=O)O)[C@@H]2Cn2cncn2)c2csc(N)n2)C(=O)O)cc1 (stereo in doubt) | -0.90 |
| CC(C)(O/N=C(\C(=O)N[C@@H]1C(=O)N(S(=O)(=O)O)[C@@H]1CN1CCOC1=O)c1csc(N)n1)C(=O)O (stereo in doubt) | -0.30 |
| CC(C)(O/N=C(\C(=O)N[C@@H]1C(=O)N(S(=O)(=O)O)[C@@H]1Cn1cc(CNC(=N)N)nn1)c1csc(N)n1)C(=O)O (stereo in doubt) | -0.60 |
| CC(C)(O/N=C(\C(=O)N[C@@H]1C(=O)N(S(=O)(=O)O)[C@@H]1CN1C[C@H](CNC(=N)N)OC1=O)c1csc(N)n1)C(=O)O (stereo in doubt) | 0.90 |
| C[C@@H](O/N=C(\C(=O)N[C@@H]1C(=O)N(S(=O)(=O)O)[C@@H]1Cn1cncn1)c1csc(N)n1)C(=O)O (stereo in doubt) | 0.00 |
| CC(C)(O/N=C(\C(=O)N[C@@H]1C(=O)N(S(=O)(=O)O)[C@@H]1CN1CCNC1=O)c1csc(N)n1)C(=O)O (stereo in doubt) | -0.30 |
| N=C(N)NCc1cnn(C[C@@H]2[C@H](NC(=O)/C(=N\OC3(C(=O)O)CC3)c3csc(N)n3)C(=O)N2S(=O)(=O)O)n1 (stereo in doubt) | -1.22 |
| CC(C)(O/N=C(\C(=O)N[C@@H]1C(=O)N(S(=O)(=O)O)[C@@H]1CN1C[C@H](CO)OC1=O)c1csc(N)n1)C(=O)O (stereo in doubt) | 0.30 |
| CC1(C)[C@H](NC(=O)/C(=N\OCc2cc(=O)c(O)cn2O)c2csc(N)n2)C(=O)N1OS(=O)(=O)O (stereo in doubt) | -0.60 |
| NC[C@@H]1CN(C[C@@H]2[C@H](NC(=O)/C(=N\OC3(C(=O)O)CC3)c3csc(N)n3)C(=O)N2S(=O)(=O)O)C(=O)O1 (stereo in doubt) | -0.90 |
| CC(C)(O/N=C(\C(=O)N[C@@H]1C(=O)N(S(=O)(=O)O)[C@@H]1Cn1cc(NC(=O)C[N+](C)(C)C)nn1)c1csc(N)n1)C(=O)O | 0.00 |
| CCN1CCN(C(=O)N[C@@H](C(=O)N[C@@H]2C(=O)N3[C@@H]2SC(C)(C)[C@@H]3C(=O)O)c2ccccc2)C(=O)C1=O | 0.60 |
| Cc1nnn(C[C@@H]2[C@H](NC(=O)/C(=N\OC(C)(C)C(=O)O)c3csc(N)n3)C(=O)N2S(=O)(=O)O)n1 (stereo in doubt) | 0.30 |
| Nc1nc(/C(=N/OCC(=O)O)C(=O)N[C@@H]2C(=O)N(S(=O)(=O)O)[C@@H]2Cn2cncn2)cs1 (stereo in doubt) | -0.90 |
| CC(C)(O/N=C(\C(=O)N[C@@H]1C(=O)N(S(=O)(=O)O)[C@@H]1Cn1ncnc1CNC(=N)N)c1csc(N)n1)C(=O)O (stereo in doubt) | 1.20 |
| Nc1nc(/C(=N/OC2(C(=O)O)CC2)C(=O)N[C@@H]2C(=O)N(S(=O)(=O)O)[C@@H]2Cn2cncn2)cs1 (stereo in doubt) | -0.90 |

---

Overview of reported MIC across a group of compounds:
Test system: Pseudomonas aeruginosa
experimental_protocol: Antimicrobial activity against Pseudomonas aeruginosa expressing nalB/delta-mexXY/delta-mexCDoprJ/delta-ampC by CLSI broth microdilution method
Type: functional
assay_endpoint: MIC

| compound | target_under_test | assay_endpoint | endpoint_result |
| --- | --- | --- | --- |
| CC(C)(O/N=C(\C(=O)N[C@@H]1C(=O)N(S(=O)(=O)O)[C@@H]1Cn1cncn1)c1nsc(N)n1)C(=O)O | Pseudomonas aeruginosa | MIC | > 64 mg/L |
| N=C(NC1CCNCC1)c1ccc(OC[C@H](O/N=C(\C(=O)N[C@@H]2C(=O)N(S(=O)(=O)O)[C@@H]2Cn2cncn2)c2csc(N)n2)C(=O)O)cc1 (stereo in doubt) | Pseudomonas aeruginosa | MIC | 8 mg/L |
| CC(C)(O/N=C(\C(=O)N[C@@H]1C(=O)N(S(=O)(=O)O)[C@@H]1Cn1cncn1)c1csc(N)n1)C(=O)O (stereo in doubt) | Pseudomonas aeruginosa | MIC | > 64 mg/L |

---

System: Escherichia coli
experimental_protocol: microbe, parasite or virus in culture
Description: Antimicrobial activity against Escherichia coli expressing beta-lactamase TEM-10 by CLSI broth microdilution method
assay_endpoint: log10(MIC) (log10 of the value in µg/mL)

| molecule | log10(MIC) |
| --- | --- |
| CC(C)(O/N=C(\C(=O)N[C@@H]1C(=O)N(S(=O)(=O)O)[C@@H]1Cn1cc(CO)nn1)c1csc(N)n1)C(=O)O (stereo in doubt) | 0.90 |
| Nc1nc(/C(=N/OC2(C(=O)O)CCC2)C(=O)N[C@@H]2C(=O)N(S(=O)(=O)O)[C@@H]2Cn2cncn2)cs1 (stereo in doubt) | 0.60 |
| N=C(N)NCc1cnn(C[C@@H]2[C@H](NC(=O)/C(=N\OC3(C(=O)O)CC3)c3csc(N)n3)C(=O)N2S(=O)(=O)O)n1 (stereo in doubt) | 0.00 |
| CC(C)(O/N=C(\C(=O)N[C@@H]1C(=O)N(S(=O)(=O)O)[C@@H]1Cn1cnnc1)c1csc(N)n1)C(=O)O (stereo in doubt) | 1.51 |
| CC(C)(O/N=C(\C(=O)N[C@@H]1C(=O)N(S(=O)(=O)O)[C@@H]1CN1CCC1=O)c1csc(N)n1)C(=O)O (stereo in doubt) | 1.20 |
| CC(C)(O/N=C(\C(=O)N[C@@H]1C(=O)N(S(=O)(=O)O)[C@@H]1CN1CCOC1=O)c1csc(N)n1)C(=O)O (stereo in doubt) | 0.30 |
| C[C@@H]1CN(C[C@@H]2[C@H](NC(=O)/C(=N\OC(C)(C)C(=O)O)c3csc(N)n3)C(=O)N2S(=O)(=O)O)C(=O)O1 (stereo in doubt) | 0.90 |
